The origin of these recorded values is patent US20120149881A1.

biological target: T1, M1′ peptide 4 (human); assay: ELISA on coated antigen, relative OD450/650
T1 peptide: SAQSQRAPDRVLCHS
MEASURED METRIC: binding result

Query: Requested read-out: binding result. Entry: humanized anti-IgE/M1′ antibody 47H4.v5 (antibody, V domains shown, huIgG1; also called 47H4v5 huIgG1; 47H5 v.5) VH: EVQLVESGGGLVQPGGSLRLSCAASGFTFSDYGIAWVRQAPGKGLEWVAFISDLAYTIYYADTVTGRFTISRDNSKNTLYLQMNSLRAEDTAVYYCARDNWDAMDYWGQGTLVTVSS VL: DIQMTQSPSSLSASVGDRVTITCRSSQSLVHNNANTYLHWYQQKPGKAPKLLIYKVSNRFSGVPSRFSGSGSGTDFTLTISSLQPEDFATYYCSQNTLVPWTFGQGTKVEIKR
Reply: binds

Query: Requested read-out: binding result. Entry: humanized anti-IgE/M1′ antibody 7A6.v1 (antibody, V domains shown, direct CDR graft, huIgG1; also called 7A6v1 huIgG1; 7A67v1 [sic]) VH: EVQLVESGGGLVQPGGSLRLSCAASGYTFIDYEMHWVRQAPGKGLEWVGAIDPETGTTAYNQKFKGRFTISADTSKNTAYLQMNSLRAEDTAVYYCTRLRPHYDYDNAMDSWGQGTLVTVSS VL: DIQMTQSPSSLSASVGDRVTITCKSSQTLLYSTNQKNYLAWYQQKPGKAPKLLIYWASTRESGVPSRFSGSGSGTDFTLTISSLQPEDFATYYCQQYYSYPYTFGQGTKVEIKR
Reply: binds

Query: Requested read-out: binding result. Entry: murine anti-IgE/M1′ antibody 7A6 (antibody, V domains shown, mIgG1 hybridoma antibody; also called mu7A6; 7A6 mIgG1) VH: QVQLQQSGAELVRPGASVTLSCKASGYTFIDYEMHWVKQTPVHGLEWIGAIDPETGTTAYNQKFKGKATLTAAKSSSTAYMELRSLTSEDSAVYYCTRLRPHYDYDNAMDSWGQGTTLTVSS VL: DIVMSQSPSSLTVSVGEKVTLSCKSSQTLLYSTNQKNYLAWYQQKPGQSPKLLIYWASTRESGVPDRFTGSGSGTDFTLTISSVKAEDLAVYYCQQYYSYPYTFGGGTKVEIKR
Reply: binds
